Could you please report measured GI50 for the items listed next?
System: SK-MEL-28
experimentalDetails: NCI tumour cell line growth inhibition, 48 h
Active and inactive are the calls of the source. No stated cut-off is given here; in the data, active = GI50 up to about 1.1 µM and inactive = higher.

O=c1ccn([C@@H]2C=C(CO)[C@@H](O)[C@H]2O)c(=O)[nH]1 :: > 625 µM (inactive)

Give me GI50 for each of these molecules, listed below.
1. O=C1c2c(Br)sc(Br)c2[C@@H](O)[C@H]1O
2. CC(=O)OC12c3ccccc3C(c3ccccc31)C1C(=O)N(N=C(C)C)C(=O)C12 (stereo unspecified)
3. CC1CCCN(CC(O)CN2CCCc3ccccc32)C1 (stereo unspecified)
4. COc1ccc(CCCCNCc2cccc(CNCCCCc3ccc(OC)cc3)c2)cc1

Resp:
19.5 µM (inactive)
> 100 µM (inactive)
> 100 µM (inactive)
1.84 µM (inactive)

* * *

Tested on: SF-268
experimentalDetails: NCI tumour cell line growth inhibition, 48 h
Activity calls are given as the source filed them. Cut-off read from the data, not from the text of the source: active = GI50 up to about 1.1 µM and inactive = higher.
For each entry below, report its GI50 value.

CC(=O)OCC1OC(n2ncc(=O)[nH]c2=O)C(OC(C)=O)C1OC(C)=O (stereo not drawn) :: 5.33 µM (inactive)

Take each entry in turn and give its GI50.
1. Nc1nn2c(C(Br)Br)cc(C(Br)Br)nc2c1[N+](=O)[O-]
2. COC(=O)c1c(C)cccc1C1CN=NC12Cc1cccc(C)c1C2=O (stereo not drawn)

Resp:
1: 1.88 µM (inactive); 2: 83.4 µM (inactive)

Report GI50 for each item below.
1. Nc1ccc(/N=N/c2ccc(-c3ccc(/N=N/c4c(S(=O)(=O)O)cc5cc(S(=O)(=O)O)c(/N=N/c6ccc([N+](=O)[O-])cc6)c(N)c5c4O)cc3)cc2)c2cc(S(=O)(=O)O)ccc12
2. CC(C)(C)C1CCC2c3c([nH]c4ccccc34)C3C(=O)N(c4cccc(Cl)c4)C(=O)C3C2C1 (stereo not drawn)
3. C/C=C/C(=O)[C@@H](O)C(C)C

Resp:
1. > 100 µM (inactive)
2. 13 µM (inactive)
3. > 100 µM (inactive)

Dear colleague, could you please provide GI50 for the molecules listed below?
1. c1cc(C2O[C@H]3CCCN3[C@@H]2c2ccncc2)ccn1 (stereo partly drawn)
2. CC[C@@H]1CC[C@@H]2[C@H](CC[C@]3(C)[C@@H](OS(=O)(=O)c4ccc(C)cc4)CC[C@@H]23)[C@H]1COS(=O)(=O)c1ccc(C)cc1

Resp:
> 100 µM (inactive)
> 100 µM (inactive)

* * *

Test system: ACHN
experimentalDetails: NCI tumour cell line growth inhibition, 48 h
Activity calls are given as the source filed them. Rule as the data show it: active = GI50 up to about 1.1 µM and inactive = higher.
Response enum: active, inactive

A selection of reference data follows.
O/N=C(\CC(O)(C(F)(F)F)C(F)(F)F)c1cccs1 :: inactive
CCOC(=O)c1cc([N+](=O)[O-])cc([N+](=O)[O-])c1Sc1[nH]cnc2ncnc1-2 :: inactive
O=C(Nc1sccc1S(=O)(=O)c1ccc(Cl)cc1)C(F)(F)F :: inactive
Nc1nc(N)c2cc(S(=O)(=O)c3ccc4ccccc4c3)ccc2n1 :: inactive
CN1COCN/C1=N/C#N :: inactive
O=C(O)CCNc1[nH]cnc2ncnc1-2 :: inactive

Req: Check the results log: what was the call for `COc1cc(C(=O)c2cocc2C(=O)c2ccc3c(c2)OCO3)cc(OC)c1OC` ?
Resp: active

Req: And the next one, `CCOC(=O)N(c1ccccc1)N(CC)C(=O)/C(C)=N/Nc1ccc([N+](=O)[O-])cc1` ?
Resp: inactive

Req: Note, next up: `CCOC(=O)N1c2ccccc2S(=O)(=O)c2ccccc21`
Resp: inactive

Req: Input Oc1ccc2c(c1)OCC(O)(c1ccccc1O)C2 (stereo unspecified)
Resp: inactive

Req: Param item: O=C1NC(N2CCCC(CO)C2)=N/C1=C\c1cccs1 (stereo unspecified)
Resp: inactive
